# target: recombinant human FAP (Homo sapiens (Human))
# assay_name: In vitro enzyme IC50 assay, FAP
# Assay type: biochemical
# condition: pH7.5; read-out: FAP Inhibition (IC50)
# Procedure: The peptide libraries XPYSWS-NH2, Ac-XPYSWS-NH2, GXYSWS-NH2, and Ac-GXYSWS-NH2, where X represents all natural amino acids except cysteine were synthesized by the Tufts University Core Facility. […] Enzymatic activity of DPPIV, DPP8, DPP9, FAP, and PREP was measured at 25° C. on a Molecular Devices M2^e multidetection microtiter plate reader, monitoring the fluorescence at an excitation wavelength of 380 nm and an emission wavelength of 460 nm. […]
observed_property: pIC50
Keep it numeric: pIC50 is minus log10 of the concentration in mol/L.

Here's what some known entries look like.
C[C@@H](NC(=O)c1ccc(F)cc1F)C(=O)N1CCC[C@H]1B(O)O ... 6.41
C[C@@H](NC(=O)c1ccc(F)cc1)C(=O)N1CCC[C@H]1B(O)O ... 6.59
C[C@@H](NC(=O)c1cc(F)nc(F)c1)C(=O)N1CCC[C@H]1B(O)O ... 6.89

What measured pIC50 goes with C[C@@H](NC(=O)c1ccc(OCF)cc1)C(=O)N1CCC[C@H]1B(O)O ?
6.62

What measured pIC50 goes with C[C@@H](NC(=O)c1c(F)c(F)c(F)c(F)c1F)C(=O)N1CCC[C@H]1B(O)O ?
6.48

What measured pIC50 goes with C[C@@H](NC(=O)c1ccccc1F)C(=O)N1CCC[C@H]1B(O)O ?
6.19

What measured pIC50 goes with C[C@@H](NC(=O)c1cccc(OCF)c1)C(=O)N1CCC[C@H]1B(O)O ?
6.89

What measured pIC50 goes with C[C@@H](NC(=O)c1cc(F)ncc1F)C(=O)N1CCC[C@H]1B(O)O ?
6.85

What measured pIC50 goes with C[C@@H](NC(=O)c1ccnc(F)c1F)C(=O)N1CCC[C@H]1B(O)O ?
6.82

----------
# target: recombinant human FAP (Homo sapiens (Human), UniProt Q12884)
# Sequence (Q12884 whole entry): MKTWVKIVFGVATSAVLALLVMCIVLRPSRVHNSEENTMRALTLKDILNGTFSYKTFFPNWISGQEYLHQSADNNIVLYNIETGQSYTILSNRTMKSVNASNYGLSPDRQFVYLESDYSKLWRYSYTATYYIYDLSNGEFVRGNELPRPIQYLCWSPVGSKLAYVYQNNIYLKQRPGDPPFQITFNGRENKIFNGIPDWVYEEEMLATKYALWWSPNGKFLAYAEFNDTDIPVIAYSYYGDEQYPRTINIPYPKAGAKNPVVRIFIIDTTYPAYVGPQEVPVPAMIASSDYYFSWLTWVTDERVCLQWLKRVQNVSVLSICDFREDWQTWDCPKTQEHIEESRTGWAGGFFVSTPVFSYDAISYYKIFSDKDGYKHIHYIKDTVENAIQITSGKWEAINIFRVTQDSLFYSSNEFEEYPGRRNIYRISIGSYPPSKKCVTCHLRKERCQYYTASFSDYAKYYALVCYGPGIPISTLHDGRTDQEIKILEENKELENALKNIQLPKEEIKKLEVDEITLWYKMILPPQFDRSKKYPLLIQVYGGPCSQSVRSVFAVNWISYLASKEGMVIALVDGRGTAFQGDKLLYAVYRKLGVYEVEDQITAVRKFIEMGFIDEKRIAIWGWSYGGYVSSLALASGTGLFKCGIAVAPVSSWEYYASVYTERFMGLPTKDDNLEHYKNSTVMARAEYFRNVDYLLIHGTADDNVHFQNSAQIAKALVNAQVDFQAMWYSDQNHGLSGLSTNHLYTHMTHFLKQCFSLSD
# assay_name: In vitro enzyme IC50 assay, FAP
# Format: biochemical
# condition: pH7.5
List of FAP Selectivity, IC50(PREP)/IC50(FAP) values.
Quick one: just the number, no unit, thanks!

C[C@@H](NC(=O)c1c(F)c(F)c(F)c(F)c1F)C(=O)N1CCC[C@H]1B(O)O ... 4.5

What measured FAP Selectivity, IC50(PREP)/IC50(FAP) goes with C[C@@H](NC(=O)c1ccccc1F)C(=O)N1CCC[C@H]1B(O)O ?
4.8

What measured FAP Selectivity, IC50(PREP)/IC50(FAP) goes with C[C@@H](NC(=O)c1ccc(OCF)cc1)C(=O)N1CCC[C@H]1B(O)O ?
7.9

What measured FAP Selectivity, IC50(PREP)/IC50(FAP) goes with C[C@@H](NC(=O)c1ccc(F)cc1)C(=O)N1CCC[C@H]1B(O)O ?
22

What measured FAP Selectivity, IC50(PREP)/IC50(FAP) goes with C[C@@H](NC(=O)c1cc(F)ncc1F)C(=O)N1CCC[C@H]1B(O)O ?
16

What measured FAP Selectivity, IC50(PREP)/IC50(FAP) goes with C[C@@H](NC(=O)c1cccc(OCF)c1)C(=O)N1CCC[C@H]1B(O)O ?
0.41

What measured FAP Selectivity, IC50(PREP)/IC50(FAP) goes with C[C@@H](NC(=O)c1cc(F)nc(F)c1)C(=O)N1CCC[C@H]1B(O)O ?
19

What measured FAP Selectivity, IC50(PREP)/IC50(FAP) goes with C[C@@H](NC(=O)c1ccc(F)cc1F)C(=O)N1CCC[C@H]1B(O)O ?
3.6

What measured FAP Selectivity, IC50(PREP)/IC50(FAP) goes with C[C@@H](NC(=O)c1ccnc(F)c1F)C(=O)N1CCC[C@H]1B(O)O ?
15

----------
# target: recombinant human PREP (Homo sapiens (Human))
# Sequence (P48147 whole entry): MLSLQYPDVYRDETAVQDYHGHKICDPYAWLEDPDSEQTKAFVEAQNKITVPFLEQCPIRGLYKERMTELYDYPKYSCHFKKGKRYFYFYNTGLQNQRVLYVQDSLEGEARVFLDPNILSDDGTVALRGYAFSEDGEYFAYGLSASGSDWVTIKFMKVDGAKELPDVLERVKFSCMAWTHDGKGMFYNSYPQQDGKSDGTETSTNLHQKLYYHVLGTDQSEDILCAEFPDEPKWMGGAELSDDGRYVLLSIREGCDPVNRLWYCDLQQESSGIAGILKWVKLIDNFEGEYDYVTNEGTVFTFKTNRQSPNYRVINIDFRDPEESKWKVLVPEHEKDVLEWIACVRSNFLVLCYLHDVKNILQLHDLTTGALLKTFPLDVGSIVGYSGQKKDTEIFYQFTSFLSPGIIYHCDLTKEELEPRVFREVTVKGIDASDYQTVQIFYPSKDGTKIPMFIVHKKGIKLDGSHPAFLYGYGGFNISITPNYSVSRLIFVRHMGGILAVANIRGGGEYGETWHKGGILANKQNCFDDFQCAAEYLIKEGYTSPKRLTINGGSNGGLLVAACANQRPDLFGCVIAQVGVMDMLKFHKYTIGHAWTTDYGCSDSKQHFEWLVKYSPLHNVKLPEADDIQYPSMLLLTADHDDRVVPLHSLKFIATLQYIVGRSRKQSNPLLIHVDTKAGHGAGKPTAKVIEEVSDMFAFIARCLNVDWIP
# assay_name: In vitro enzyme IC50 assay, PREP
# Format: biochemical
# condition: pH2.0; read-out: PREP Inhibition (IC50)
observed_property: pIC50
Keep it numeric: pIC50 is minus log10 of the concentration in mol/L.

C[C@@H](NC(=O)c1ccc(OCF)cc1)C(=O)N1CCC[C@H]1B(O)O ... 5.70

What measured pIC50 goes with C[C@@H](NC(=O)c1cc(F)nc(F)c1)C(=O)N1CCC[C@H]1B(O)O ?
5.64

What measured pIC50 goes with C[C@@H](NC(=O)c1ccccc1F)C(=O)N1CCC[C@H]1B(O)O ?
5.66

What measured pIC50 goes with C[C@@H](NC(=O)c1cc(F)ncc1F)C(=O)N1CCC[C@H]1B(O)O ?
5.70

What measured pIC50 goes with C[C@@H](NC(=O)c1cccc(OCF)c1)C(=O)N1CCC[C@H]1B(O)O ?
7.32

----------
# target: recombinant human FAP (Homo sapiens (Human))
# assay_name: In vitro enzyme IC50 assay, FAP
# Assay type: biochemical
# condition: pH2.0; read-out: FAP Inhibition (IC50)
observed_property: pIC50
Keep it numeric: pIC50 is minus log10 of the concentration in mol/L.

C[C@@H](NC(=O)c1ccc(OCF)cc1)C(=O)N1CCC[C@H]1B(O)O ... 6.62

What measured pIC50 goes with C[C@@H](NC(=O)c1cccc(OCF)c1)C(=O)N1CCC[C@H]1B(O)O ?
6.89

What measured pIC50 goes with C[C@@H](NC(=O)c1ccccc1F)C(=O)N1CCC[C@H]1B(O)O ?
6.41

What measured pIC50 goes with C[C@@H](NC(=O)c1cc(F)ncc1F)C(=O)N1CCC[C@H]1B(O)O ?
6.85
